The measurements presented in this section are drawn from patent US11274082B2.

- System: TEAD
- Method description: TEAD reporter assay (Hippo Pathway TEAD Reporter - MCF7 cell line, luciferase)
- Type: cell-based
- Condition info: Homo sapiens; TEAD Reporter - MCF7 cells; read-out: TEAD Reporter Assay EC50
pEC50: −log10 of the molar value.
Below, each entry is listed alongside its reported pEC50.

q: Any idea what pEC50 came out for CNS(=O)(=O)c1ccc(Nc2ccc(OC(F)(F)F)cn2)c(-c2cn(C)cn2)c1 [I-84] on TEAD?
a: > 7.00

q: # get_value(readout= pEC50, system= TEAD) for CNS(=O)(=O)c1ccc(Nc2cc(C(F)(F)F)ccn2)c(-c2cn(C)cn2)c1 [I-33]
a: > 7.00

q: Tell me reported pEC50 for CNS(=O)(=O)c1ccc(Nc2cccc(C(F)(F)F)c2)c(C(C)=O)c1 [I-23] , tested with TEAD.
a: < 6.30

Moving on to another compound below.
q: Enter reported pEC50 observed with TEAD for Cn1cnc(-c2cc(S(N)(=O)=O)ccc2Nc2cc(C(F)(F)F)ccn2)c1 [I-49]
a: < 6.30

----------
Measured pEC50 of individual entries
- System: TEAD
- Method description: TEAD reporter assay (Hippo Pathway TEAD Reporter - MCF7 cell line, luciferase)
- Type: cell-based
- Condition info: Homo sapiens; TEAD Reporter - MCF7 cells; read-out: TEAD Reporter Assay EC50
pEC50: −log10 of the molar value.

Look over these answered cases.
q: Can you look up the measured pEC50 of `CNS(=O)(=O)c1ccc(NCc2ccccc2)c(-c2cn(C3CC3)cn2)c1` for me?
a: > 7.00

q: Which pEC50 is listed for `CNS(=O)(=O)c1ccc(Nc2cc(C(F)(F)F)ccn2)c(-c2nnc(C)o2)c1` ?
a: 6.30 to 7.00

q: Return reported pEC50; argument: `CNS(=O)(=O)c1ccc(Nc2ccc(C#N)cn2)c(-c2cn(C)cn2)c1`
a: < 6.30

q: Can you share its pEC50? I mean this compound: `Cn1nnc(-c2cc(B(O)O)ccc2Nc2cccc(C(F)(F)F)c2)n1`
a: < 6.30

We now examine a further compound.
q: # pEC50 lookup, item `CNS(=O)(=O)c1ccc(N[C@@H](C)c2cccc(C(F)(F)F)c2)c(-c2cn(C)cn2)c1`
a: 6.30 to 7.00

----------
Recorded EC50 for the following compounds
- Tested on: TEAD
- Method description: TEAD reporter assay (Hippo Pathway TEAD Reporter - MCF7 cell line, luciferase)
- Assay type: cell-based
- Condition info: Homo sapiens; TEAD Reporter - MCF7 cells; read-out: TEAD Reporter Assay EC50

q: For `CNS(=O)(=O)c1ccc(Nc2cc(C(F)(F)F)ccn2)c(-c2cn(C3CC3)cn2)c1` , what is its reported EC50?
a: < 0.1 µM

q: Any idea what EC50 was measured for `CNS(=O)(=O)c1ccc(Nc2ccc(C(F)(F)F)nn2)c(-c2cn(C)cn2)c1` ?
a: > 0.5 µM

Continuing:
q: Look up EC50: `CNS(=O)(=O)c1ccc(Nc2ccc(C3CC3)cn2)c(-c2cn(C)cn2)c1`
a: 0.1 to 0.5 µM

q: Reported EC50, compound `CNS(=O)(=O)c1ccc(NCc2ccc(OC(F)(F)F)cc2)c(-c2cn(C)cn2)c1` : ____
a: 0.1 to 0.5 µM

q: Can you look up the measured EC50 of `CNS(=O)(=O)c1ccc(N[C@@H](C)c2ccc(C(F)(F)F)cc2)c(-c2cn(C)cn2)c1` for me?
a: > 0.5 µM

q: If you can, please state the reported EC50 value of `CNS(=O)(=O)c1ccc(Nc2ccc(C(F)(F)F)cn2)c(-c2cn(C(C)C)cn2)c1` .
a: < 0.1 µM

q: What measured EC50 goes with `CNS(=O)(=O)c1ccc(Oc2cccc(C(F)(F)F)c2)c(-c2cn(C)cn2)c1` ?
a: > 0.5 µM

q: For `CNS(=O)(=O)c1ccc(Oc2cccc(C(F)(F)F)c2)c(C(N)=O)c1` , what is its reported EC50?
a: > 0.5 µM

q: Query: EC50; subject: `CNS(=O)(=O)c1ccc(NCc2ccccc2)c(-c2nnc(C)o2)c1`
a: > 0.5 µM

q: Which EC50 is reported for this compound? `CNS(=O)(=O)c1cnc(N[C@H](C)c2ccccc2)c(-c2cn(C)cn2)c1`
a: 0.1 to 0.5 µM

q: Dear colleague, I am looking for the recorded EC50 of the following compound: `CNS(=O)(=O)c1ccc(NCc2ccccc2)c(-c2nnn(C)n2)c1`
a: 0.1 to 0.5 µM

q: What value of measured EC50 is listed for CNS(=O)(=O)c1ccc(N[C@@H]2CCc3ccccc32)c(-c2cn(C)cn2)c1 (single isomer, unassigned) ?
a: < 0.1 µM

q: // lookup EC50 for `CNS(=O)(=O)c1ccc(Nc2ccc(C(F)(F)F)cn2)c(-c2cn(Cc3ccccc3F)cn2)c1`
a: < 0.1 µM
